For each record, write down the corresponding GI50.
system: SK-MEL-5; experiment: NCI tumour cell line growth inhibition, 48 h
The source made the active and inactive calls. No stated cut-off is given here; in the data, active = GI50 up to about 1.1 µM and inactive = higher.

What does the data say about its GI50? Entry: CCOC(=O)C1=C(C)NC2=C(C(=O)N(c3ccccc3)C2c2ccccc2)C1c1ccccc1 (centres undefined) 15.1 µM (inactive)

Record: `CCOC(=O)/C=C(/C(=O)OCC)n1cc(C)c(=O)[nH]c1=O` 8.81 µM (inactive)

Record: `COc1ccc2c(c1)c1c(n2CCN(C)C)-c2cccc(OC)c2CC1` 10.4 µM (inactive)

Record: `CC(C)C(=O)C(C)(C)CCc1ccccn1` > 100 µM (inactive)

---

system: SF-295; assay: NCI tumour cell line growth inhibition, 48 h
Active and inactive are the calls of the source. Rule as the data show it: active = GI50 up to about 1.1 µM and inactive = higher.
Allowed answers: True = active, False = inactive

I'd appreciate the recorded outcome for `Cc1ccnc2nc(-c3cccc(Cl)c3)cc(O)c12` from this test. True

Record: `Nc1ccc2[nH]cc(CCC(=O)O)c2c1` False

Record: `Cc1cc(C)n2c(-c3ccccc3)c(C)cc2n1` False

Record: `N#CC(C#N)=C(N)/C(C#N)=C\c1ccnc2ccccc12` False

Record: COc1ccc(-c2nc(-c3cnccn3)n(C3OC(CO)C(O)C(O)C3O)n2)cc1 (stereo not drawn) False

Record: `Cn1cnc([N+](=O)[O-])c1Sc1nnnn1-c1ccccc1` False

Record: `C[C@@H](CO)OCOCc1ccccc1` False

Record: `COc1ccc(NC(=O)CCc2cc(-c3ccc(O)c(OC)c3)nc(NC#N)n2)cc1` False

Record: Cc1ccc2c(c1)C(O)(c1ccccc1)CCS2 (stereo not drawn) False

Record: `O=C(NO)c1coc2ccccc2c1=O` False

Record: c1ccc2c(c1)N=C(c1cccc3ccccc13)CC(c1ccc3c(c1)OCO3)S2 (stereo not drawn) False

Record: CCC1C(c2cc(OC)c(OC)c(OC)c2)c2cc3c(cc2OC1N1CCOCC1)OCO3 (stereo not drawn) False

Record: `Cn1c(=O)c2c3ccccc3c(C(=O)c3ccccc3)n2c2ccccc21` False

Record: `Cc1ccc(NC(=O)/C(Cl)=C(/Cl)C(=O)O)cc1` False

Record: `Clc1ccc(Nc2nnc(CNc3ccc(-c4nnc(Nc5ccc(Cl)cc5)s4)cc3)s2)cc1` False

Record: `Cc1c(C(=O)C/C(=N/NC(=O)C[n+]2ccccc2)C(=O)Nc2ccccc2)[n+]([O-])c2ccccc2[n+]1[O-]` False

Record: `COc1nc(OC)nc(Sc2ccc(Sc3ccc(Sc4nc(OC)nc(OC)n4)cc3)cc2)n1` False

Record: `CC(C)NC(=O)OCc1c(COC(=O)NC(C)C)n(C)c2c1ccc1cc(Cl)c(Cl)cc12` False

---

system: Malme-3M; test: NCI tumour cell line growth inhibition, 48 h
Active and inactive are the calls of the source. Rule as the data show it: active = GI50 up to about 1.1 µM and inactive = higher.
Attribute measured: GI50

What does the data say about its GI50? Entry: c1ccc2c(c1)CCN1CCc3ccccc3C1C2 (centres undefined) > 100 µM (inactive)

Record: `Cc1cc(Cl)ccc1OCC(=O)Nc1nc(N)nc(N)n1` > 100 µM (inactive)

Record: `OCc1c2c(cc3c1CC1(C3)Cc3cc4c(c(CO)c3C1)CCC4)CCC2` 15.3 µM (inactive)

Record: `CCCCCNC(=O)c1cc2cc(CCl)ccc2oc1=O` 2.36 µM (inactive)

Record: `[O-][S+](c1ccc(O)cc1)c1ccc(O)cc1` > 100 µM (inactive)

Record: `C[C@]12CC[C@H]3[C@@H](CC=C4C[C@@H](O)CC[C@@]43C)[C@@H]1C/C(=C/c1ccccc1)[C@@H]2O` 27.5 µM (inactive)

Record: CC1CCC2(NC1)OC1CC3[C@@H]4CC=C5C=CCC[C@]5(C)C4CC[C@]3(C)C1C2C (some centres undefined) 18.5 µM (inactive)

Record: CCOC(=O)C1CCC(=O)N1C(=O)c1ccc(Cl)cc1 (centres undefined) > 100 µM (inactive)

Record: `O=[N+]([O-])c1ccc(-c2ccc(C3=Nn4c(CNc5ccccc5Cl)nnc4SC3)o2)cc1` > 100 µM (inactive)

---

system: RPMI-8226; test: NCI tumour cell line growth inhibition, 48 h
Active and inactive are the calls of the source. Rule as the data show it: active = GI50 up to about 1.1 µM and inactive = higher.
Allowed answers: Yes = active, No = inactive

I'd appreciate the recorded outcome for O=C(Cc1ccccc1)NN1C(=O)C(Cl)C1c1cccc(O)c1 (stereo not drawn) from this test. No

Record: `O=P(O)(O)CN1CCNCCN(CP(=O)(O)O)CC1` No

Record: `NC(=O)CC[C@H]1C(=O)N=C(N)N1C(=O)OCc1ccccc1` No

Record: c1ccc2c(c1)CCN1CCc3ccccc3C1C2 (stereo not drawn) No

Record: `Clc1ccc(-c2nnc(-c3nn(-c4ccccc4)c4nc5ccccc5nc34)o2)cc1` No

Record: `C#C[C@]1(O)CCCC2=CC(=O)CC[C@@]21C` No

Record: `c1cc(-c2cnc(-c3ccc4c(c3)CCCO4)o2)ccn1` No

Record: COc1cc(C2SCC(=O)N2c2ccc(-n3c(-c4ccccc4)nc4ccccc4c3=O)cc2)ccc1O (stereo not drawn) No

Record: CC(O)c1cc2c(s1)C(=O)c1scc(C(C)O)c1C2=O (stereo not drawn) Yes

Record: `Cc1cccc(C(C)C)c1NC(=O)CCl` No

Record: `Nc1ccc2c(SCCSc3c4ccccc4nc4cc(N)ccc34)c3ccccc3nc2c1` No

Record: C=CC(Br)(CBr)CCC(Br)C(C)(C)Br (stereo not drawn) No

Record: O=C1C=CC2(O[C@H](c3ccccc3)[C@@H](c3ccccc3)O2)C(SC(=O)c2ccccc2)C1 (stereo partly drawn) Yes

Record: `Cc1ccc(NC(=O)c2cccc([N+](=O)[O-])c2O)c(C)c1` No

Record: CN(C)C(=O)C(F)(F)C(c1ccc(F)cc1)C1C(=O)N(C)C(=O)N(C)C1=O (stereo not drawn) No

Record: `COc1cc(Cc2ccc3c(c2C#N)N(C)c2ccccc2S3)cc(OC)c1OC` No

Record: `CC(C)(C)c1cc2c(c(C(C)(C)C)c1O)CC(=O)O2` No

Record: NNC(=O)C(=O)N/N=C1/CCCC1C(=O)CCC(=O)Nc1ccc(Cl)cc1 (stereo not drawn) No

---

For each record, write down the corresponding GI50.
system: U-251; test: NCI tumour cell line growth inhibition, 48 h
Calls of active or inactive are those of the source. Rule as the data show it: active = GI50 up to about 1.1 µM and inactive = higher.

What does the data say about its GI50? Entry: `O=[N+]([O-])C(C(Cl)=C(Cl)Cl)=C(N1CCCCC1)N1CCCCC1` > 100 µM (inactive)

Record: COc1ccc(C(C)NNC(=O)c2ccncc2)cc1OC (stereo not drawn) > 100 µM (inactive)

Record: `CCCCCC(=O)N[C@H]1CCc2cc(O)c(O)c(O)c2-c2ccc(SC)c(=O)cc21` 27.9 µM (inactive)

Record: COc1c2c(cc3c1C(=O)c1c(O)cccc1C3=O)CC(O)CC2 (stereo not drawn) 50.9 µM (inactive)

Record: `Cn1c(=O)cc(NCCc2ccccc2)[nH]c1=O` 61.1 µM (inactive)

Record: `COC(=O)CCc1cc(OC)c2oc(-c3ccc(OC)c(OC)c3)c(CO)c2c1` > 100 µM (inactive)

Record: `CCOC(=O)C(C)(C)Oc1ccc2c(-c3ccccc3)cc(=O)oc2c1` 36.3 µM (inactive)

Record: `CCc1ccccc1NC(=O)C1=C(C)NC(C)=C(C(=O)Nc2ccccc2CC)C1c1cccc([N+](=O)[O-])c1` 39.4 µM (inactive)

Record: `CCC(=N\NC(N)=S)/C(C)=N/O` > 100 µM (inactive)

Record: `Cc1c(N2CCCC2)cc2c(c1NC(=O)c1ccccc1Cl)C(C)(C)CC2(C)C` 14.5 µM (inactive)

Record: `COc1ccc(-c2cc(=O)c3c(O)cccc3o2)c(OC)c1OC` 16.1 µM (inactive)

Record: C=C1CC(CCCl)(c2ccccc2)OC1=O (stereo not drawn) > 59.3 µM (inactive)

Record: COc1c(C)c(C/C=C(\C)CCCC(C)CCCC(C)CCCC(C)C)c(OC)c2ccccc12 (stereo not drawn) > 100 µM (inactive)

---

tested on: DMS-273; test: NCI tumour cell line growth inhibition, 48 h
The source made the active and inactive calls. Cut-off read from the data, not from the text of the source: active = GI50 up to about 1.1 µM and inactive = higher.
Allowed answers: 1 (active), 0 (inactive)

I'd appreciate the recorded outcome for `CC1=C(C(=O)Nc2ccccc2)C(c2ccc(N(C)C)cc2)C(C(=O)Nc2ccccc2)=C(C)N1` from this test. 1

Record: `CSC(=N)N1N=C2c3ccccc3CC[C@@H]2[C@@H]1c1ccccc1` 0

Record: `CC(=O)N1CCC2(C=Nc3ccccc32)CC1` 0

Record: `CCOC(=O)/C(=C/c1ccccc1Br)P(=O)(OCC)OCC` 0

Record: `CS(=O)(=O)C1(Br)S(=O)(=O)OCCOS1(=O)=O` 0

Record: `O=C(Nc1cccc(Cl)c1)c1cc2cc(/N=N/c3ccc(Br)cc3)ccc2oc1=O` 0

Record: `N#CC(C#N)=C1NC(=O)CC(=O)N1` 0

Record: `Cc1cc2c(=O)cc(-c3ccncc3)oc2c(C(=O)O)c1C` 0

Record: `Cc1cc2c(C)nn(Cc3ccc(Cl)cc3)c2c(C#N)c1C` 0

Record: `CN(C)C(=S)SSC(=S)N(C)C` 1

Record: COC(=O)C(/C(=N/NC(N)=O)C(=O)Nc1c(C)cccc1C(C)(C)C)c1nc2ccc(Cl)cc2nc1O (stereo not drawn) 0

Record: `Cc1ccc(NC(=O)CC(=O)n2nc(-c3ccccc3)c(/N=N/c3ccc(Cl)cc3)c2-c2ccccc2)cc1` 0

Record: `COc1ccc(/C=C\c2cc(OC)c(OC)c(OC)c2)cc1OC` 1

Record: `COc1cc(Cc2ccc3c(c2C#N)N(C)c2ccccc2S3)cc(OC)c1OC` 0

Record: C(=C\C(Sc1ccccc1)c1ccccc1)/NNC1=NN=C(c2ccccc2)C(c2ccccc2)N1 (stereo not drawn) 0

Record: `CC(=O)O[C@@]12CO[C@@H]1C[C@H](O)[C@@]1(C)C(=O)[C@H](O)C3=C(C)[C@@H](OC(=O)[C@H](O)[C@@H](NC(=O)OC(C)(C)C)c4ccccc4)C[C@@](O)([C@@H](OC(=O)c4ccccc4)[C@H]21)C3(C)C` 1

Record: COC(=O)C(=O)C(C(=O)C(=O)Nc1ccc([N+](=O)[O-])cc1)c1nc2ccccc2nc1O (stereo not drawn) 0

Record: `Cc1cc(C)n2c(-c3ccccc3)c(C)cc2n1` 0

Data provenance: ChEMBL document CHEMBL1201862
